TARGET_SYSTEM: Apelin receptor (Homo sapiens) (UniProt P35414)
ASSAY: potency against CXCR6 with APJ panel – cell-based, beta-arrestin, DiscoveRx, uHTS hits, dose response (AID 624129)
CONDITION_CONTEXT: CXCR6 beta-arrestin (DiscoveRx) antagonist cell assay, APJ, dose range 1, mean IC50 across replicates
Under this convention, Condition met denotes IC50 strictly below 9 µM and Condition not met denotes IC50 at or above 9 µM.

Examples from the recorded data:
COMPOUND | DISCRETE_LABEL
N=C1S/C(=C\c2ccco2)C(=O)N1c1nccs1 | Condition not met
CC(C)c1ccc(O)c(NC(=S)NC(=O)c2cccnc2)c1 | Condition not met
O=S(=O)(Nc1cccc2cccnc12)c1ccccc1 | Condition not met
COc1ccccc1-c1cc(C(F)(F)F)nc(S(=O)(=O)CCCC(=O)NCc2ccc(F)cc2)n1 | Condition not met
Cc1ccc(C(=O)CNc2ccc(F)cc2)cc1 | Condition met
C=C(CN(C)C)C(=O)c1ccc(C)cc1C | Condition not met
COc1ccc(C(=O)/C(=C\c2ccco2)N2C=CC=CC2=C(C#N)C#N)cc1 | Condition met
C/C(=N\NC(=O)C(c1ccccc1)c1ccccc1)c1ccccn1 | Condition not met
COc1cccc(-n2nc(C#N)c(Cl)cc2=O)c1 | Condition met
COc1ccc(N2C(=O)CC(Sc3nnnn3-c3ccc(F)cc3)C2=O)cc1 (stereo not drawn) | Condition not met

Consider now this further compound.
Quick check: does `Cn1c(=O)c([N+](=O)[O-])c(Cl)c2ccccc21` have IC50 under 9 µM?
Condition not met

====

TARGET_SYSTEM: Apelin receptor (Homo sapiens)
ASSAY: potency against CXCR6 with APJ panel – cell-based, beta-arrestin, DiscoveRx, uHTS hits, dose response (AID 624129)
CONDITION_CONTEXT: CXCR6 beta-arrestin (DiscoveRx) antagonist cell assay, APJ, run 2, dose range 1
Sorting guide: entries reporting IC50 beneath 20 µM go in the Yes pile, the rest go in the No pile.

As a guide, the following entries are already answered.
MOLECULE | DISCRETE_LABEL
CCOc1cc(Br)c(Br)c(C=Nc2ccc(NC(C)=O)cc2)c1O | No
C/C(=N\NC(=O)Cn1c(-c2ccccn2)nc2ccccc21)c1ccccc1 | Yes
COc1ccc(C2CC(c3c(O)n(CCc4ccccc4)c(=O)[nH]c3=O)=NN2)cc1OC (centres undefined) | No
CN(c1ccccc1)S(=O)(=O)c1ccc(NC(=O)c2nc(S(C)(=O)=O)ncc2Cl)cc1 | Yes

Does the reported IC50 of the following molecule sit strictly below 20 µM? `O=C(NNC(=O)C12CC3CC(CC(C3)C1)C2)c1ccccn1`
Yes

Does this molecule meet the criterion IC50 < 20 µM? `CC(C)(C)c1ccc(-n2nc(C#N)c(Cl)cc2=O)cc1`
Yes

Record `O=C(CN1CCN(S(=O)(=O)c2ccc(Br)cc2)CC1)Nc1ccc2c(c1)OCO2` : is its IC50 strictly below 20 µM?
No

Identify whether the molecule `C=C1C(=O)O[C@@H]2C[C@@H](C)[C@@H]3C=CC(=O)[C@@]3(C)[C@@H](OC(=O)CC(=O)O[C@H]3[C@@H]4C(=C)C(=O)O[C@@H]4C[C@@H](C)[C@@H]4C=CC(=O)[C@]43C)[C@H]12` records IC50 below 20 µM.
Yes

Identify whether the molecule `COc1ccc(C)c(-n2c(=O)n(Cc3ccccc3)c(=O)c3[nH]cnc32)c1` records IC50 below 20 µM.
Yes

====

TARGET_SYSTEM: C-X-C chemokine receptor type 6 (Homo sapiens) (UniProt O00574)
Sequence (O00574 whole entry, looked up): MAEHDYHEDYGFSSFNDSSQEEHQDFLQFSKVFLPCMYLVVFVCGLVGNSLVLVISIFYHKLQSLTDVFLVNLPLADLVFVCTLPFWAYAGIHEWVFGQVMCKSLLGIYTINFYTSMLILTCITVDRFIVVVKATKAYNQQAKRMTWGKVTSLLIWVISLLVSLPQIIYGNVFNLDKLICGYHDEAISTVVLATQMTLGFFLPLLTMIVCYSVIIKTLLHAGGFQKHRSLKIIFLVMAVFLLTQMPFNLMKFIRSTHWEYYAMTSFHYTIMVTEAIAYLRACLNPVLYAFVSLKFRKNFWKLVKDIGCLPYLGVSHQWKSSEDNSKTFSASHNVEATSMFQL
ASSAY: potency against CXCR6 with APJ panel – cell-based, beta-arrestin, DiscoveRx, uHTS hits, dose response (AID 624129)
CONDITION_CONTEXT: CXCR6 beta-arrestin (DiscoveRx) antagonist cell assay, CXCR6, run 2, dose range 1, at 79 µM (top of the series)
Everything with inhibition lower than 90% is n; everything else, including exactly 90%, is y.

COMPOUND | TARGET_SYSTEM | DISCRETE_LABEL
CCCNC(=O)c1nnsc1S(=O)c1ccc(Cl)cc1 (stereo unspecified) | C-X-C chemokine receptor type 6 (Homo sapiens) (UniProt O00574) | y
CCCC(=O)OCCNc1cc(SCCC(=O)OC)c2nonc2c1[N+](=O)[O-] | C-X-C chemokine receptor type 6 (Homo sapiens) (UniProt O00574) | y
CCCNC(=O)c1nnsc1S(=O)(=O)c1ccc(Cl)cc1 | C-X-C chemokine receptor type 6 (Homo sapiens) (UniProt O00574) | y
CCOc1ccc(Nc2ccc([N+](=O)[O-])c3nonc23)cc1 | C-X-C chemokine receptor type 6 (Homo sapiens) (UniProt O00574) | n
Cc1ccccc1NC(=S)NNc1ncc(C(F)(F)F)cc1Cl | C-X-C chemokine receptor type 6 (Homo sapiens) (UniProt O00574) | n

Is reported inhibition greater than or equal to 90% here: `COc1cc(/C=C/[N+](=O)[O-])ccc1OC(=O)c1cccnc1`
y

Decide: is the reported value of inhibition for `FC(F)(F)c1cnc(NNC(=S)Nc2ccccc2)c(Cl)c1` equal to or greater than 90%?
y

Please tell me: is the compound `NC(=S)NN=C1c2cc(Cl)ccc2-c2c1cc(Cl)cc2[N+](=O)[O-]` at or over 90% in terms of inhibition?
y

Please indicate if the recorded inhibition for `COC(=O)c1ccc(C)c(-n2c(=O)n(Cc3ccccc3)c(=O)c3[nH]cnc32)c1` meets or exceeds 90%.
n

Is it the case that `O=C(Nc1ccccc1)c1ccc(Nc2c([N+](=O)[O-])cc([N+](=O)[O-])c3ccccc23)cc1` has inhibition reaching or exceeding 90%?
y

====

TARGET_SYSTEM: C-X-C chemokine receptor type 6 (Homo sapiens)
ASSAY: potency against CXCR6 with APJ panel – cell-based, beta-arrestin, DiscoveRx, uHTS hits, dose response (AID 624129)
CONDITION_CONTEXT: CXCR6 beta-arrestin (DiscoveRx) antagonist cell assay, CXCR6, run 2, dose range 2
OBSERVABLE: log10 of IC50 (log10 of the value in µM)
Each number you see is log10 of IC50, and the unit inside the log is µM.

The following molecules have reported results that may help.
MOLECULE | log10 of IC50
Cc1ccc(NC(=O)c2ccc(Nc3c([N+](=O)[O-])cc([N+](=O)[O-])cc3[N+](=O)[O-])cc2)cc1 | 1.41
C[n+]1ccc(/C=N/Nc2nc(Cl)c(C#N)c(Cl)c2Cl)cc1 | 1.82

Quick check: log10 of IC50 of `O=[N+]([O-])c1c(NCCCO)cc(Sc2ccc(Cl)cc2)c2nonc12` ?
0.51

Given the molecule `C=CS(=O)(=O)c1ccc(Oc2ccc(S(=O)(=O)C=C)cc2)cc1` , what is its reported log10 of IC50?
1.08

====

TARGET_SYSTEM: Apelin receptor (Homo sapiens)
ASSAY: potency against CXCR6 with APJ panel – cell-based, beta-arrestin, DiscoveRx, uHTS hits, dose response (AID 624129)
CONDITION_CONTEXT: CXCR6 beta-arrestin (DiscoveRx) antagonist cell assay, APJ, run 2, dose range 1
# IC50 listing for each entry below
// note: answer is a bare numeric in µM

COMPOUND | UNIT_SPEC | IC50
COC(=O)C1=C(c2ccc(-c3ccccc3)c(F)c2)C[C@@H]2CC[C@H]1N2C(=O)N1CCC(C)CC1 | µM | 13.8

// below: IC50 requested for another compound
Looking for the measured IC50 of `CCn1c(Cl)c(C=O)s/c1=N\S(=O)(=O)c1ccccc1` , can you help?
5.55

====

TARGET_SYSTEM: UniProtKB O00574
ASSAY: potency against CXCR6 with APJ panel – cell-based, beta-arrestin, DiscoveRx, uHTS hits, dose response (AID 624129)
CONDITION_CONTEXT: CXCR6 beta-arrestin (DiscoveRx) antagonist cell assay, CXCR6, run 2, dose range 2
OBSERVABLE: pIC50
Keep in mind that pIC50 stands for -log10 of concentration in molar terms.

MOLECULE | VALUE_MEASURED
CCC(=O)OCCNc1cc(Sc2nc3ccccc3[nH]2)c2nonc2c1[N+](=O)[O-] | 5.27
C/C(=N\NC(=O)Cc1ccc(Cl)cc1)c1ccccn1 | 5.46
COc1ccc(OC)c(NC(=O)c2nc(S(=O)(=O)Cc3ccccc3)ncc2Cl)c1 | 5.05
COC(=O)C1=C(C(=O)OC)C2OC1c1cc3ccccc3cc12 | 4.78
C=CCn1c(=O)c2c(nc3n2CC(C)CN3c2cccc(OC)c2)n(C)c1=O (stereo not given) | 4.68
C=C1C(=O)C23C(O)C1CCC2C12CCCC(C)(COC(C)=O)C1C(O)C3(O)OC2 (stereo not given) | 5.24
C/C(=N\NC(=O)COc1ccccc1-c1ccccc1)c1ccccn1 | 5.82
N=C1S/C(=C\c2ccco2)C(=O)N1c1nccs1 | 5.02

Which pIC50 is reported for this molecule? `CN(CC(=O)Nc1cc(S(=O)(=O)N2CCCC2)ccc1Cl)Cc1cccs1`
4.93
